- methodDescription: 384-well plate pilot, post-Golgi transport modulator project, inhibition of yeast transport mutant growth (AID 636)
- conditionParameters: absorbance 615 nm, about 18 h
Calls of active or inactive are those of the source. No stated cut-off is given here; in the data, active means inhibition above about 31%; inactive means the rest.
Result category, one only: label 1 (active), label 0 (inactive)

These recorded examples may help you get a feel for the data.
QUERY: Hey, what did the test say about "COc1ccc2c(c1)C(C)=CC(C)(C)N2C(=O)CSc1nnc(-c2ccc(C)cc2)o1" ?
RESULT: label 1

QUERY: Query CCOC(=O)CC1=C(C(=O)OCC)C(c2ccc(C)o2)C(C#N)=C(N)O1 (stereo not drawn) next
RESULT: label 0

QUERY: Next molecule: "CN=C1CC(C)(C)CC(=O)/C1=C(/O)CCC(=O)NC"
RESULT: label 0

QUERY: Please give the result for "CC1(C)CC(=O)C(C=Nc2ccc3c(c2)OCO3)=C(O)C1" too.
RESULT: label 0

QUERY: Let us now turn to "CCN(CC)C(=O)CN(c1cc(Cl)ccc1OC)S(C)(=O)=O"
RESULT: label 0

New cases:
QUERY: What outcome does the record of this test show for COc1ccc(C(=O)N2CCN(C3CCC(c4ccccc4)CC3)CC2)cc1OC (stereo not drawn) ?
RESULT: label 0

QUERY: Input O=C1N2c3ccccc3CCc3cccc(c32)C1(O)C(F)(F)F (stereo not drawn)
RESULT: label 0

====

- methodDescription: HUVEC growth inhibition – cell-based, human, primary screen (AID 575);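 further: 100% = median of untreated cell wells with 0.1% DMSO on each plate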
- conditionParameters: HUVEC proliferation, CellTiter-Glo luminescence, 72 h; at 10 µM; stronger effect = lower value
Activity calls are given as the source filed them.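 The calls were made as follows: active = viability at or below 30% in both replicate assays; inconclusive = viability at or below 30% in just one of the two assays; inactive = the rest.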
The following molecules are listed with their measured viability values.

Solved cases below.
QUERY: Can you share its viability? I mean this molecule: "CC(=O)Nc1ccc(S(=O)(=O)N2CCN=C2C)cc1"
RESULT: 109% (inactive)

QUERY: Moving on to "CN(C)C(=O)Cn1c(SCC(=O)NC2CCCCC2)nc2ccccc21"
RESULT: 101% (inactive)

QUERY: Request: "CCOC(=O)c1sc2nc(C)cc(C)c2c1N"
RESULT: 110% (inactive)

QUERY: Now try "COc1ccc(C(N)=O)cc1N" .
RESULT: 105% (inactive)

QUERY: Try the molecule COc1ccc(NC(=O)C(C)NS(=O)(=O)c2ccc(NC(C)=O)cc2)cc1Cl (configuration not stated)
RESULT: 103% (inactive)

QUERY: Query CC1=C(C(=O)NCc2ccco2)C2(CCC(C)CC2)OC1=O (configuration not stated) next
RESULT: 94% (inactive)

QUERY: Try this molecule too: "N#Cc1nc(-c2ccco2)oc1NCc1ccco1"
RESULT: 89.3% (inactive)

QUERY: Next record, please: "CCOc1ccccc1N1CCN(c2nc(N)c(C#N)c(CC#N)c2C#N)CC1"
RESULT: 70.7% (inactive)

Next:
QUERY: Entry under review: "CCn1c(CC(=O)Nc2cccc(OC)c2)nnc1SCC(=O)Nc1nccs1" . Reported viability?
RESULT: 94.5% (inactive)

QUERY: Query "CN(C)c1ccc(NC(=O)c2cc3c(=O)n4ccccc4nc3n2C)cc1" next
RESULT: 97.8% (inactive)

QUERY: Try the molecule "CC1CCN(S(=O)(=O)c2ccc3[nH]c(=O)cc(C(=O)O)c3c2)CC1"
RESULT: 106% (inactive)

====

- methodDescription: reducers of endogenous Her2 protein level, primary screen, SKBR3 breast tumor cells, AlphaScreen, ATP viability (AID 461);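 on viability: percent of carrier control wells set as 100% viability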
- conditionParameters: 18-24 h, measured here: SKBR3 viability, ATP luminescence, at 10 µM
Listed molecules paired with reported viability
Quick reminder: number only, in %, skip the unit.

Recorded results for 3 molecules are shown here.
QUERY: viability for "COc1cc(CN2CCN(C(=O)CC(C)C)CC2)cc(OC)c1O" ?
RESULT: 114

QUERY: Check "Cc1cc(C)c2nc(N)sc2c1" too.
RESULT: 95.5

QUERY: Input "CCCOc1ccc(OCCSc2ncccn2)cc1"
RESULT: 97

Others:
QUERY: I'd like to know its viability. The molecule in question is "CCOC(=O)C1CCN(Cc2c(O)ccc3ccccc23)CC1"
RESULT: 126

QUERY: Would you kindly repeat that for "COc1ccccc1C(=O)n1nc(-c2ccc(Cl)cc2)nc1N" ?
RESULT: 90

QUERY: Request: "CSCC[C@@H](Nc1nc(-c2ccccc2)nc2c1oc1ccccc12)C(=O)O"
RESULT: 91

====

- methodDescription: reversal of MRP1-mediated doxorubicin resistance, pilot screen, H69AR cells, doxorubicin co-treatment (AID 601)
- conditionParameters: H69AR cells + 2 uM doxorubicin, CellTiter-Glo, 72 h; measured here: viability with 2 uM doxorubicin; at 10 µM; stronger effect = lower value
Consider the following compounds and their measured viability readings.
Numeric only. Scale: %

Please review the entries below; each comes with its answer.
QUERY: Which measured viability value corresponds to C=CCSC1=C(C#N)C(c2ccccc2Cl)CC(=O)N1 (centres undefined) ?
RESULT: 95.1

QUERY: Note, next up: "CN=Cc1cc(-c2ccccc2)sc1O"
RESULT: 77

QUERY: Further, for "Cc1c(CCC#N)c(N2CCN(C3CCCCC3)CC2)n2c(nc3ccccc32)c1C#N" ?
RESULT: 22.1

QUERY: For Cc1cccc(CS(=O)(=O)Cc2ccc(C(=O)NCC3CCCO3)o2)c1 (centres undefined) then?
RESULT: 103

QUERY: Field entry: "CCOC(=O)CN(C(=O)CSc1nnc(-c2ccncc2)n1CCCN(C)C)c1ccccc1"
RESULT: 78.1

New cases:
QUERY: Fill in the blank: the reported viability of "Cc1csc(SCC(=O)NC(=O)NCc2ccccc2)n1" is ____.
RESULT: 95.3

QUERY: Now consider "O=C(Cn1nnc(-c2cc(Cl)ccc2-n2cnnn2)n1)N1CCCc2ccccc21" .
RESULT: 87

QUERY: Then "CN(C)C(=O)Cn1c(SCC(=O)NC2CCCCC2)nc2ccccc21" ?
RESULT: 87.5

QUERY: What do you have for "CCCNC(=O)Nc1ccccc1C(=O)Nc1ccc(OC)cc1" ?
RESULT: 104

QUERY: And then CCN1CCN(CCCNC(=O)C2c3ccccc3C(=O)N(C)C2c2ccc(OC)cc2)CC1 (centres undefined) , what is it?
RESULT: 93.2

QUERY: Check COc1ccc(OC)c(S(=O)(=O)N2c3ccccc3CC2C)c1 (centres undefined) too.
RESULT: 101

====

- methodDescription: reversal of MRP1-mediated doxorubicin resistance, pilot screen, H69AR cells, doxorubicin co-treatment (AID 601)
- conditionParameters: H69AR cells, CellTiter-Glo, 72 h; compound alone cytotoxicity; at 10 µM
viability values, listed per item
The answer consists of two parts: a number and, after it, its unit.

QUERY: May I ask what viability has been recorded for "Cc1cc(S(=O)(=O)NC2CCCCC2)ccc1OCC(=O)NCc1ccccn1" ?
RESULT: 99.1%

====

- methodDescription: 384-well plate pilot, post-Golgi transport modulator project, inhibition of yeast transport mutant growth (AID 636)
- conditionParameters: absorbance 615 nm, about 18 h, stronger effect = higher value
Listed below: inhibition values for each entry.
A number alone suffices; assume %.

QUERY: Item under review: "NC(=O)COC(=O)CNC(=O)c1ccc(Cl)cc1" . Reported inhibition?
RESULT: -2.4

QUERY: // next record Cc1ccc(N2C(=O)c3ccccc3C2Nc2cccnc2)nc1 (stereo not given)
RESULT: -2.18

QUERY: Entry to check: CC(=O)NC(=O)NC1CSCC1OC(C)=O (stereo not given)
RESULT: -6.53

QUERY: Another molecule to look at: "CCOC(=O)CSc1nc(C)c(C(=O)OCC)s1"
RESULT: 0.92

QUERY: Another molecule to look at: O=S(NCc1ccco1)C12CC3CC(CC(C3)C1)C2 (stereo not given)
RESULT: -1.08

QUERY: And the next one, "O=C1COc2ccc(C(=O)NCc3ccco3)cc2N1" ?
RESULT: -2.11

***
QUERY: Using the record for Cc1c(/C(O)=C2/C(=O)C(=O)N(CCN3CCOCC3)C2c2cccnc2)cnn1-c1ccccc1 (stereo not given) , report its inhibition.
RESULT: 1.45

QUERY: Now consider CCOC(=O)C1CCCN(c2c(N3CCN(c4ccccn4)CC3)c(=O)c2=O)C1 (stereo not given) .
RESULT: 0

QUERY: Quick one: "CN1CCN(CC(=O)Nc2ccc(Cl)cc2Cl)CC1"
RESULT: -3.29

QUERY: Consider next the molecule "Cn1c(=O)[nH]c(=O)c2[nH]c(CN3CCN(C(=O)c4ccco4)CC3)nc21" in the same way.
RESULT: -1.58

====

- assayedSystem: Receptor tyrosine-protein kinase erbB-2 (Homo sapiens)
- methodDescription: reducers of endogenous Her2 protein level, primary screen, SKBR3 breast tumor cells, AlphaScreen, ATP viability (AID 461);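 on Her2 level: lower value means less Her2 protein in the cells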;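 on viability: percent of carrier control wells set as 100% viability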
- conditionParameters: 18-24 h, at 10 µM, stronger effect = lower value
reportedMetric: Her2 level (%)
Write the number in % without appending the unit.

The following molecules have reported results that may help.
QUERY: Please tell me: Her2 level of "COCCCN(C(C)=O)c1nc(-c2ccccc2)cs1" , system Receptor tyrosine-protein kinase erbB-2 (Homo sapiens)?
RESULT: 85.5

QUERY: What about this molecule? "CC(=O)Oc1ccc(-c2ccc(C(=O)O)cc2)cc1"
RESULT: 110

QUERY: How about N#Cc1c(N2C(=O)C3C4C=CC(C4)C3C2=O)sc2c1CCC2 (stereo not given) ?
RESULT: 86.5

QUERY: Same question, O=S1(=O)CCC(NS(=O)(=O)/C=C/c2ccccc2)C1 (stereo not given) this time
RESULT: 104

Others:
QUERY: Form field - read-out: Her2 level; system: Receptor tyrosine-protein kinase erbB-2 (Homo sapiens); submitted item: "COC(=O)c1cccc(Oc2nc3c(c(=O)n(C)c(=O)n3C)n2C(C)C)c1"
RESULT: 84

QUERY: Record: "COc1cccc(C(=O)Nc2ccc(N(C)C)cc2)c1OC"
RESULT: 78.5

QUERY: Param item: "Cc1cccc(-c2cc3nc(C)cc(NCCCN(C)C)n3n2)c1"
RESULT: 87.5

QUERY: Let us now turn to CCNCC(O)COCC(O)CNCC (stereo not given)
RESULT: 86
